Here's a batch of molecules along with measured AC50 for Cytochrome P450 3A4 (Homo sapiens, UniProt P08684).

# molecule, AC50
data = [
    ("NC(=O)CNCCC(c1ccccc1)c1ccccc1", "2 µM (inconclusive)"),
    ("CC1=NN(C(=O)c2ccncc2)C(=O)[C@@H]1/N=N\\c1ccc2ccccc2c1", "3.98 µM (inconclusive)"),
    ("O=C(c1ccncc1)N1CCC2(CCN(Cc3ccncc3)CC2)CC1", "15.8 µM (inconclusive)"),
    ("Cc1nnc(-c2cnn(-c3ccccc3)c2N)n1Cc1ccc(F)cc1", "25.1 µM (inconclusive)"),
    ("FC(F)(F)c1ccccc1-c1nc(N2CCOCC2)c2ccccc2n1", "12.6 µM (inconclusive)"),
    ("COc1ccc([N+](=O)[O-])cc1NC1C2CC3CC(C2)CC1C3 (stereo unspecified)", "11.2 µM (inconclusive)"),
    ("COc1ccccc1/C=C/C=N/N1CCN(Cc2cccc3ccccc23)CC1", "12.6 µM (inconclusive)"),
    ("COC(=O)c1c(NC(=O)c2ccco2)sc2c1CCC2", "39.8 µM (inconclusive)"),
    ("O=S1(=O)CCN(c2ccccc2CC(c2c[nH]c3ccccc23)c2c[nH]c3ccccc23)CC1", "2.51 µM (inconclusive)"),
    ("O=c1c(-c2cccc(Cl)c2)nc2cncnc2n1Cc1ccc(F)cc1", "15.8 µM (inconclusive)"),
    ("CCCOc1ccc(/C=C/C(=O)Nc2ccc([N+](=O)[O-])cc2C)cc1OC", "2.82 µM (inconclusive)"),
    ("COC(=O)C1(CC(C)C)C=C2C(=C(C(C)C)C(=O)C2C)CN1 (stereo unspecified)", "20 µM (inconclusive)"),
    ("C[C@@H]1c2ccccc2CN1CC1=NCCN1", "31.6 µM (inconclusive)"),
    ("CN(C)c1ccnc(Oc2ccc(Cl)cc2)c1C#N", "3.16 µM (inconclusive)"),
    ("Cn1c2c(c(=O)n(C)c1=O)C1(C(=O)Nc3ccccc31)C(C#N)=C(N)O2 (stereo unspecified)", "22.4 µM (inconclusive)"),
    ("CC(=O)Nc1ccc(S(=O)(=O)NC(CC(=O)NCCCN2CCOCC2)C(C)C)cc1 (stereo unspecified)", "31.6 µM (inconclusive)"),
]

* * *

Molecular target: Corticotropin-releasing factor receptor 2/Corticotropin-releasing factor-binding protein (Homo sapiens, UniProt P24387+Q13324)
Sequence (Q13324 whole entry): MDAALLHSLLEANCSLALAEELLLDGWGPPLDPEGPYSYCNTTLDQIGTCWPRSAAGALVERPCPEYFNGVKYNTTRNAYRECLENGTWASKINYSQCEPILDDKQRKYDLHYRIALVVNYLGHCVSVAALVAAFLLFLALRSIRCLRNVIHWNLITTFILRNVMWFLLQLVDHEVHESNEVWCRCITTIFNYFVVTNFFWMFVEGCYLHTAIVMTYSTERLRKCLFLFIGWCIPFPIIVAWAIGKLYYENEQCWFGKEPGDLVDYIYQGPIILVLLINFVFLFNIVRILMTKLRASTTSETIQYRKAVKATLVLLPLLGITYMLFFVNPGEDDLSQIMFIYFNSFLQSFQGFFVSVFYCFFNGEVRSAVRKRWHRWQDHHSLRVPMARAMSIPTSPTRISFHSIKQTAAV
Sequence (P24387 whole entry): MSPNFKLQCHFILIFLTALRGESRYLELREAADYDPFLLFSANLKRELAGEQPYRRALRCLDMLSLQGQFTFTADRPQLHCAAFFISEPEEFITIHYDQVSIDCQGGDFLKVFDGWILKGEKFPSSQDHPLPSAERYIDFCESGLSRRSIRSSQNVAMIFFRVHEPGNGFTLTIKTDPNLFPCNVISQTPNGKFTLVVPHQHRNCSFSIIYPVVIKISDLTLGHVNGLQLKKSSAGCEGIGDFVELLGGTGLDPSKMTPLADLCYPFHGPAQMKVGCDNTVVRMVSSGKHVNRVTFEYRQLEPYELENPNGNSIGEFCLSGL
Assay: activators of CRF receptor 2 with binding protein – uHTS hits, confirmation (AID 602473)
Assay type: functional
Conditions: read-out: EC50_Mean
Activity calls are given as the source filed them.
Outcomes: yes (1) (active), no (0) (inactive)

# molecule, discrete_label
rows = [
    ("COCCn1c(SCC(=O)Nc2cccc(C(=O)OC)c2)nc2ccccc2c1=O", "no (0)"),
    ("Cc1cccc(NC(=N)Nc2nc(C)cc(C)n2)c1", "yes (1)"),
    ("COc1ccccc1/C=C/c1nc(S(=O)(=O)c2ccccc2)c(N(C)C)o1", "no (0)"),
    ("Cc1nnc(C)n1/N=C/c1cccs1", "no (0)"),
    ("COCCCNC(=O)[C@H]1N2C(=O)c3ccccc3C2SC1(C)C (stereo not given in full)", "no (0)"),
    ("COc1ccc(C(C)=NNc2ccc([N+](=O)[O-])cc2S(=O)(=O)Nc2ccccc2C(=O)O)c(OC)c1", "yes (1)"),
    ("CCC1(c2ccc(F)cc2)NC(=O)N(CC(=O)c2cc(C)n(C3CC3)c2C)C1=O (stereo not given)", "yes (1)"),
    ("CC1(c2ccc([N+](=O)[O-])cc2)NC(=O)N(CC(=O)c2ccc3c(c2)OCO3)C1=O (stereo not given)", "yes (1)"),
    ("Cc1ccc(C(C)(C)C)cc1S(=O)(=O)Nc1nc2ccccc2nc1Cl", "yes (1)"),
    ("COc1cccc(C(=O)OCC(=O)NCCC2=CCCCC2)c1", "no (0)"),
    ("O=C(C[n+]1nc(CNc2ccc(Cl)cc2)n2c1CCCCC2)c1ccc(Br)cc1", "no (0)"),
    ("CC(=O)Nc1ccc(Sc2ncccc2C(=O)Nc2ccc(F)cc2)cn1", "yes (1)"),
    ("COc1ccccc1C1SCCN1S(=O)(=O)c1ccccc1 (stereo not given)", "no (0)"),
    ("Cc1cccc(NC(=O)CSc2nc3n[nH]cc3c(=O)[nH]2)c1C", "no (0)"),
    ("COc1ccc(/C=C/C(=O)NCCSCc2ccco2)cc1OC", "no (0)"),
    ("CCOc1ccc(/N=c2\\scc(-c3ccc(OC)cc3)n2CCO)cc1", "no (0)"),
    ("N#Cc1c(-c2ccc(F)cc2)cc(C2CC2)nc1SCC(=O)c1cccs1", "no (0)"),
    ("CCOc1ccc(S(=O)(=O)N2CN(c3cccc(C(C)=O)c3)c3nc4ccccc4nc32)cc1", "no (0)"),
    ("Cc1ccc(S(=O)(=O)N/N=C/c2ccc(OC3CSC3)cc2)cc1", "yes (1)"),
    ("CCOc1cc(/C=N\\NC(=O)C2C(=O)NCC2c2ccccc2)ccc1OC (stereo not given)", "yes (1)"),
]
